tested on: CP252; assay: qHTS profiling for inhibitors of Plasmodium falciparum proliferation (AID 504749); note: nearly all actives have a fitted effect of over 60% in size; conditions: P. falciparum in erythrocytes, SYBR Green DNA, 72 h; series mostly up to 28.7 µM
Inconclusive results are not listed. Calls of active or inactive are those of the source. Calls come from the whole dose curve; as a rule, active = well fitted inhibition curve with a large enough effect; inconclusive = small, poorly fitted or top-dose-only effect; inactive = flat fitted curve, though single readings scatter.
Result category, one only: class 1 for active, class 0 for inactive

{"columns": ["compound", "target of assay", "category"],
 "data": [
  ["Cc1oc(=O)oc1CN1CCN(c2cc3c(cc2F)c(=O)c(C(=O)O)c2n3C(C)S2)CC1 (stereo unspecified)", "CP252", "class 1"]
]}

-- ask Look up the recorded call for CN1CCN(c2c(F)cc3c(=O)c(C(=O)O)cn4c3c2OCN4C)CC1 in this test.
-- reply class 0

-- ask Item: C#CCN[C@@H]1CCc2ccccc21
-- reply class 0

-- ask Item: Cc1cccc(N(C)C(=S)Oc2ccc3ccccc3c2)c1
-- reply class 0

-- ask Item: N[C@@H](C(=O)N[C@@H]1C(=O)N2C(C(=O)O)=C(Cl)CS[C@H]12)c1ccccc1
-- reply class 0
